System: NCI/ADR-RES ovarian
ASSAY_OVERVIEW: NCI-60 one-dose screen, 48 h (100 = growth as untreated, 0 = no growth, -100 = all killed)
MEASUREMENT_PARAMETERS: 10 µM unless noted
This is part of a sample that, as a whole, favours compounds with a hit. Of some 83,000 tested, about 20% had one in any assay.
The reader will find reported growth values listed item by item below.
Numeric only. Scale: %

COMPOUND: CC(=O)Nc1ccc(C(=O)COc2ccc(/C=C3\CCc4ccccc4C3=O)cc2)cc1
growth / %: 96.2
--
COMPOUND: CCC(=O)Nc1cc2c(cc1Cl)-c1ccccc1C2
growth / %: 90.1
--
COMPOUND: Cc1nn2c(/C=C3/C(=O)Nc4cc(Cl)ccc43)c(-c3ccccc3)nc2s1
growth / %: 24.2
--
COMPOUND: CN(C)c1ccc(-n2nc3ccccc3n2)cc1
growth / %: 106
--
COMPOUND: CC(C)C[C@H](NC(=O)/C=C/Cn1ccc2ccccc2c1=O)B(O)O
growth / %: 106
--
COMPOUND: CCOc1cc(/C=C/C(=O)CC(=O)/C=C/c2ccc(OC(=O)CNc3nc4ccc(OC)cc4s3)c(OCC)c2)ccc1OC(=O)CNc1nc2ccc(OC)cc2s1
growth / %: 82.3
--
COMPOUND: C#C[C@]1(O)CCC2C3CCc4cc(O)ccc4C3CC[C@@]21C (stereo not given in full)
growth / %: 13.5
--
COMPOUND: CCSc1ncc(Br)c(Sc2nc(N)nc3nc[nH]c23)n1
growth / %: 33.4
--
COMPOUND: O=C(CC1Sc2ccccc2NC1=O)NNc1cccc(Cl)c1Cl (stereo not given)
growth / %: 96.7

Look up growth with NCI/ADR-RES ovarian for this compound: COc1cc(-c2n[nH]nc2-c2ccccn2)cc(OC)c1OC
77.9

---

Tested on: MDA-MB-231 breast
ASSAY_OVERVIEW: NCI-60 one-dose screen, 48 h (100 = growth as untreated, 0 = no growth, -100 = all killed)
MEASUREMENT_PARAMETERS: 10 µM unless noted
The panel holds about 83,000 compounds, 20% with a hit somewhere; the sample as a whole holds those more often.
Threshold check on growth: strictly below 80% is Y; on or above 80% is N.

MOLECULE: Cc1nn(-c2ccccc2)c2nc(N)c(C3=NCCO3)nc12
TARGET_OR_SYSTEM: MDA-MB-231 breast
DISCRETE_LABEL: N
//
MOLECULE: O=C1Nc2ccc(C(=O)O)c(O)c2C1=O
TARGET_OR_SYSTEM: MDA-MB-231 breast
DISCRETE_LABEL: N
//
MOLECULE: CC(C)N(Cc1ccccc1)c1c(S)ssc1=S
TARGET_OR_SYSTEM: MDA-MB-231 breast
DISCRETE_LABEL: Y

Dear colleague, could you confirm whether growth of Fc1ccccc1C1c2ccccc2-c2nccn21 (centres undefined) falls below 80%? Thanks.
N

And then C[C@@H]1[C@H]2[C@H](C=C3[C@@H]4CC[C@H]5Cc6nc7c(nc6C[C@]5(C)[C@H]4C[C@@H](O)[C@@]32C)C[C@@H]2CC[C@H]3C4=C[C@@H]5O[C@@]6(CC[C@](C)(CO)O6)[C@@H](C)[C@@]5(O)[C@@]4(C)[C@H](O)C[C@@H]3[C@@]2(C)C7)O[C@]12CCC(C)(C)O2 , what is it?
Y

Record: CCOC(=O)C1C(=O)NC(C(=O)OCC)(C(=O)OCC)C1CC (centres undefined)
N

And the next one, O=C(N/N=C/c1cccc([N+](=O)[O-])c1)c1ccc(Br)o1 ?
N
